A set of molecules tested on phosphorylated PDK1 (Homo sapiens (Human), UniProt O15530), with measured IC50:

Worked examples, 2 molecules total:
MOLECULE: O=C(NCc1ccc(-c2c[nH]c3ncc(Cl)cc23)s1)c1cccn(Cc2ccc(F)c(F)c2)c1=O
MEAS_VALUE: < 0.5 µM
--
MOLECULE: COC(=O)[C@H](COc1ccc2[nH]c(=O)[nH]c2c1)NC(=O)c1cccn(Cc2cc(F)c(F)c(F)c2)c1=O
MEAS_VALUE: < 0.5 µM

Working through the 6 molecules below one at a time, give IC50 for each.
1. O=C(NCc1cc(-c2c[nH]c3ncccc23)cs1)c1cccn(Cc2ccc(F)c(F)c2)c1=O
2. O=C(C[C@@H](NC(=O)c1cccn(Cc2ccc(F)c(F)c2)c1=O)c1nnc(-c2c[nH]c3ncccc23)o1)NCCO
3. O=C(NCc1cc(-c2c[nH]c3ncccc23)[nH]n1)c1cccn(Cc2ccc(F)c(F)c2)c1=O
4. O=C(NCc1cccc(-c2ccc3[nH]ncc3c2)c1)c1cccn(Cc2ccc(F)c(F)c2)c1=O
5. O=C(NCc1noc(-c2c[nH]c3ncccc23)n1)c1cccn(Cc2ccc(C(F)(F)F)cc2)c1=O
6. CN(C)C(=O)c1cc(-c2c[nH]c3ncccc23)cc(CNC(=O)c2cccn(Cc3ccc(F)c(F)c3)c2=O)n1

1. < 0.5 µM
2. < 0.5 µM
3. < 0.5 µM
4. < 0.5 µM
5. < 0.5 µM
6. < 0.5 µM

Working through the 4 molecules below one at a time, give IC50 for each.
1. O=C1Nc2cc(/C=C/CNC(=O)c3cccn(Cc4cc(F)c(F)c(F)c4)c3=O)ccc2/C1=C/c1cccs1
2. COc1ccnc(NCCCCCNC(=O)c2cccn(C(C)c3ccc(Cl)cc3)c2=O)n1 (stereo not drawn)
3. O=C(NC1(c2nnc(-c3c[nH]c4ncccc34)o2)CC1)c1cccn(Cc2ccc(F)c(F)c2)c1=O
4. O=C(NCCOc1ccc2c(c1)[nH]c(=O)n2C1CC1)c1cccn(Cc2ccc(F)c(F)c2)c1=O

< 0.5 µM
0.5 to 10 µM
< 0.5 µM
< 0.5 µM

###

A set of compounds tested on phosphorylated PDK1 (Homo sapiens (Human)), with measured pIC50:
pIC50: −log10 of the molar value.

Worked examples, 10 compounds total:
COMPOUND: Nc1ncnc2[nH]nc(-c3cccc(CNC(=O)c4cccn(Cc5ccc(F)c(F)c5)c4=O)c3)c12
TESTED_TARGET: phosphorylated PDK1 (Homo sapiens (Human))
Sequence (O15530 51-360): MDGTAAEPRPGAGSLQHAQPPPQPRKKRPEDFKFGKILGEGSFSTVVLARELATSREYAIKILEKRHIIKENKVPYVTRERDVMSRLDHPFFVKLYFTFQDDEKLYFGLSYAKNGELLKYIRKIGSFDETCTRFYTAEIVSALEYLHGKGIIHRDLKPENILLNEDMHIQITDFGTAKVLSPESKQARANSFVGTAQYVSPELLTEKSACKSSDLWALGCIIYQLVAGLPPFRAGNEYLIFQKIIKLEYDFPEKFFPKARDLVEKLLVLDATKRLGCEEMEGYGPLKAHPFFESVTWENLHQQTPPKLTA
pIC50: > 6.30
//
COMPOUND: CN(C)C(=O)c1cnc2[nH]cc(-c3cccc(CNC(=O)c4cccn(Cc5ccc(F)c(F)c5)c4=O)c3)c2c1
TESTED_TARGET: phosphorylated PDK1 (Homo sapiens (Human))
pIC50: > 6.30
//
COMPOUND: O=C1CC(c2cccc(CNC(=O)c3cccn(Cc4ccc(F)c(F)c4)c3=O)c2)CN1 (stereo not shown)
TESTED_TARGET: phosphorylated PDK1 (Homo sapiens (Human))
pIC50: 5.00 to 6.30
//
COMPOUND: O=C(NCc1cccc(-c2n[nH]c3ncccc23)c1)c1cccn(Cc2ccc(F)c(F)c2)c1=O
TESTED_TARGET: phosphorylated PDK1 (Homo sapiens (Human))
pIC50: > 6.30
//
COMPOUND: CCCNC(=O)c1cnc2[nH]cc(-c3cccc(CNC(=O)c4cccn(Cc5ccc(F)c(F)c5)c4=O)c3)c2c1
TESTED_TARGET: phosphorylated PDK1 (Homo sapiens (Human))
pIC50: > 6.30
//
COMPOUND: O=C(NCc1noc(-c2c[nH]c3ncccc23)n1)c1cccn(Cc2cccc(F)c2)c1=O
TESTED_TARGET: phosphorylated PDK1 (Homo sapiens (Human))
pIC50: > 6.30
//
COMPOUND: O=C(Nc1cccc(Cc2c[nH]c3ncccc23)c1)c1cccn(Cc2ccc(F)c(F)c2)c1=O
TESTED_TARGET: phosphorylated PDK1 (Homo sapiens (Human))
pIC50: 5.00 to 6.30
//
COMPOUND: O=C(NCc1noc(-c2c[nH]c3ncccc23)n1)c1cc(Cl)cn(Cc2ccc(F)cc2)c1=O
TESTED_TARGET: phosphorylated PDK1 (Homo sapiens (Human))
pIC50: > 6.30
//
COMPOUND: COc1ccnc(NCCC#CCCNC(=O)c2cccn(Cc3cccc(Cl)c3)c2=O)n1
TESTED_TARGET: phosphorylated PDK1 (Homo sapiens (Human))
pIC50: 5.00 to 6.30
//
COMPOUND: CNC(=O)c1cnc2[nH]cc(-c3ccc(CNC(=O)c4cccn(Cc5ccc(F)c(F)c5)c4=O)s3)c2c1
TESTED_TARGET: phosphorylated PDK1 (Homo sapiens (Human))
pIC50: > 6.30

Working through the 5 compounds below one at a time, give pIC50 for each.
1. O=C(NCc1cccc(-c2c[nH]c3nccnc23)c1)c1cccn(Cc2ccc(F)c(F)c2)c1=O
2. O=C(NCc1cccc(-c2c[nH]c3ncc(Br)cc23)c1)c1cccn(Cc2ccc(F)c(F)c2)c1=O
3. CC(C)/C=C1/C(=O)Nc2cc(/C=C/CNC(=O)c3cccn(Cc4cc(F)c(F)c(F)c4)c3=O)ccc21
4. O=C(NCc1cccc(-c2ccc3nccn3c2)c1)c1cccn(Cc2ccc(F)c(F)c2)c1=O
5. C[Si](C)(C)CCOCn1nc(NC(=O)c2cccn(Cc3ccc(F)c(F)c3)c2=O)c2cc(-c3c[nH]c4ncccc34)ccc21

> 6.30
> 6.30
> 6.30
> 6.30
> 6.30

Please give measured pIC50 of the following entry: `CN(C)C(=O)C[C@@H](NC(=O)c1cccn(Cc2ccc(F)c(F)c2)c1=O)c1ccc(-c2c[nH]c3ncccc23)s1`
> 6.30

###

- Test system: phospho-akt (Thr308)
- ASSAY_PROTOCOL: phospho-akt (Thr308) MSD ELISA in PC-3 cells
- Type: cell-based
- SETTINGS: Homo sapiens, PC-3, 2 h, PC-3 cells, 2 hours, no serum; read-out: Inhibition of P308 Akt in cells using MSD EC50
ATTRIBUTE_MEASURED: EC50

COMPOUND_SMILES: CNC(=O)c1cnc2[nH]cc(-c3cccc(CNC(=O)c4cccn(Cc5ccc(F)c(F)c5)c4=O)c3)c2c1
EC50: 1 to 5 µM

COMPOUND_SMILES: O=C(NCCOc1ccc2[nH]c(=O)[nH]c2c1)c1cccn(Cc2ccc(F)c(F)c2)c1=O
EC50: > 5 µM

COMPOUND_SMILES: O=C(NCc1cccc(-c2c[nH]c3nccnc23)c1)c1cccn(Cc2ccc(F)c(F)c2)c1=O
EC50: 1 to 5 µM

Lab note: next molecule to report on.
State, for phospho-akt (Thr308), measured EC50 of the molecule listed here: `O=C(NCc1cnc(-c2c[nH]c3ncccc23)s1)c1cccn(Cc2ccc(Cl)c(Cl)c2)c1=O`
1 to 5 µM

###

- Test system: phospho-akt (Thr308)
- ASSAY_PROTOCOL: phospho-akt (Thr308) MSD ELISA in PC-3 cells
- Assay type: cell-based
- SETTINGS: Homo sapiens, PC-3, 2 h, PC-3 cells, 2 hours, no serum; read-out: Inhibition of P308 Akt in cells using MSD EC50
ATTRIBUTE_MEASURED: EC50

Worked examples, 4 compounds total:
COMPOUND_SMILES: O=C1Nc2cc(/C=C/CNC(=O)c3cccn(Cc4ccc(F)c(F)c4)c3=O)ccc2/C1=C/c1ncc[nH]1
MEAS_VALUE: < 1000 nM
--
COMPOUND_SMILES: O=C(NCc1ccc(-c2c[nH]c3ncc(CO)cc23)s1)c1cccn(Cc2ccc(F)c(F)c2)c1=O
MEAS_VALUE: < 1000 nM
--
COMPOUND_SMILES: CCNC(=O)c1cnc2[nH]cc(-c3ccc(CNC(=O)c4cccn(Cc5ccc(F)c(F)c5)c4=O)s3)c2c1
MEAS_VALUE: < 1000 nM
--
COMPOUND_SMILES: CCCNC(=O)c1cnc2[nH]cc(-c3cccc(CNC(=O)c4cccn(Cc5ccc(F)c(F)c5)c4=O)c3)c2c1
MEAS_VALUE: < 1000 nM

Working through the 2 compounds below one at a time, give EC50 for each.
1. O=C(N[C@@H](COc1ccc2[nH]c(=O)[nH]c2c1)c1ccsc1)c1cccn(Cc2ccc(F)c(F)c2)c1=O
2. O=C(Nc1cccc(Cc2c[nH]c3ncccc23)c1)c1cccn(Cc2ccc(F)c(F)c2)c1=O

< 1000 nM
> 5000 nM

Please give measured EC50 of the following entry: `O=C(NCc1noc(-c2c[nH]c3ncccc23)n1)c1cc(Cl)cn(Cc2cccc(F)c2)c1=O`
1000 to 5000 nM

###

- Tested on: phospho-akt (Thr308)
- ASSAY_PROTOCOL: phospho-akt (Thr308) MSD ELISA in PC-3 cells
- Type: cell-based
- SETTINGS: Homo sapiens, PC-3, 2 h, PC-3 cells, 2 hours, no serum; read-out: Inhibition of P308 Akt in cells using MSD EC50
pEC50: −log10 of the molar value.
Would you mind telling me the reported pEC50 of each entry?

Working through the 5 compounds below one at a time, give pEC50 for each.
1. O=C1Nc2cc(/C=C/CNC(=O)c3cccn(Cc4ccc(F)c(F)c4)c3=O)ccc2/C1=C\c1cccnc1
2. O=C(NCc1cc(-c2c[nH]c3ncccc23)cs1)c1cccn(Cc2ccc(F)c(F)c2)c1=O
3. CNC(=O)c1cnc2[nH]cc(-c3ccc(CNC(=O)c4cccn(Cc5ccc(F)c(F)c5)c4=O)s3)c2c1
4. O=C(NCc1ccc(-c2c[nH]c3ncc(Cl)cc23)s1)c1cccn(Cc2ccc(F)c(F)c2)c1=O
5. O=C(NCc1nc(-c2c[nH]c3ncccc23)cs1)c1cccn(Cc2ccc(F)c(F)c2)c1=O

1: 5.30 to 6.00; 2: 5.30 to 6.00; 3: 5.30 to 6.00; 4: < 5.30; 5: > 6.00

Working through the 3 compounds below one at a time, give pEC50 for each.
1. O=C(NCc1noc(-c2c[nH]c3ncccc23)n1)c1cc(Cl)cn(Cc2ccc(F)cc2)c1=O
2. COC(=O)C[C@H](NC(=O)c1cccn(Cc2ccc(F)c(F)c2)c1=O)c1nnc(-c2c[nH]c3ncccc23)o1
3. O=C(NCc1cccc(-c2cccc3[nH]ncc23)c1)c1cccn(Cc2ccc(F)c(F)c2)c1=O

< 5.30
> 6.00
< 5.30
